Listed here: items and their measured folding stability dG unfold.
test: folding stability dG unfold from trypsin proteolysis; higher = more stable
Just the number in kcal/mol, nothing appended.

SAGGSAGGSAGGMLVLIKTPKKPVLLSEEEVKSNPELLEKLKEEGFPIDGIEFLDKEKLSAGGSAGGSAGGS [r10_396_JUSTAS]
-0.185
SAGGMTKPTSSPSPLDPSTPPEEWIAAIEKELPPDWRIVEPRPRPGPRLVTVLAEDPNSGKRVILRASAGGS [r16_250_JUSTAS]
-0.989
SAGKQEIKVEAVFPGDTLEEFMEFIREFLAEQGLKIEPTEFEIDKVQPMPGGPMIRVTAWIKIEPPDDSAGG [r19_325_TrROS]
2.31

Here is another sequence to look at.
Bench note: what folding stability dG unfold did SAGGSAGGSAGIKIPPGQKLSIEENPDGNMEIKFPDPGQKFTIPPNAPIEVDPNNWIYIKSAGGSAGGSAGG [r17_49_TrROS] show?
0.00801

----------
assay: folding stability dG unfold from chymotrypsin proteolysis; higher = more stable
measured_parameter: folding stability dG unfold (kcal/mol)
Express it in kcal/mol; write the number only.

SAGGSAGGSAGGMELELTFATPEQAVEYAERFERLGYEVEVEYYPETGLVRVRVRLYPEESAGGSAGGSAGG [r7_623_TrMRF]
3.6
SAGGSAGGSAGGSEGAPIRVTLTGTRTETRTRPDGSPVTDSGTDTVEFTLDLYDPEKSGSAGGSAGGSAGGS [r4_450_TrMRF]
-0.0249
SEPRYHVEIRLPVLLVVPPELLEPDPERDSYRLPEDDLPVHPDAVIPREVTFSGPMTAEEVVRRTLALLSSA [r9_165_TrMRF]
1.38

Turning now to a further record.
Which folding stability dG unfold is listed for SAGGSAGGSLSLPEGFKLSSLVSVEELPGVLRIYFLDPEKPLLYEVVYDLETGEQTVERIPIGSAGGSAGGS [r12_206_JUSTAS] ?
2.6

----------
assay: folding stability dG unfold (combined trypsin and chymotrypsin); higher = more stable
measured_parameter: folding stability dG unfold (kcal/mol)
Write the number in kcal/mol without appending the unit.

Consider the sequence shown here: KKRTIEIPFPANGYKVKIEVPEDQGKPIDEEEIQKLLREWHPDMPADDMPAKEIAKYLADEPGIKEVEIERS [r1_463_TrROS] What is its recorded folding stability dG unfold?
0.132

----------
test: folding stability dG unfold from trypsin proteolysis; higher = more stable
folding stability dG unfold below 0.4 kcal/mol gives Not satisfied; folding stability dG unfold at or above it gives Satisfied.

Here's what some known entries look like.
SAGGSAGGSAGGGMRFTVEVEPGKVSYSPGIVNKNTPGSSVSEIITVTVVETNPEKLLLSAGGSAGGSAGGS [r10_654_JUSTAS]
Not satisfied
SAGGYKYKREKYRDPENGQPRERYKREPPPPPPPSISININAPPEMADKIADILQDLLPNMPVGINGSAGGS [r8_437_TrROS]
Satisfied
SAGGMVNLRLYNPATGEPIDFPVPKDVVEEMLKNGDLAALEALFPGFPIAKVEVDEGEEVPAVPPDEASAGG [r13_629_TrMRF]
Satisfied
SAGGSAGGKIEIVIEGLSEEEVEALAKELRDAGLEIEVTVVPPPAPPPLTAEELAKNPEALKALSAGGSAGG [r6_804_TrROS_Hall]
Satisfied
SEAKTMSPEELKEFIEEYIEEERKKNPGKPVRIAIEDLKEKFPGFSPEELKKLLGLSEEELENGAIEIEPSA [r9_525_TrMRF]
Satisfied
SAGGYLVRIEMPNGREHEYPVKDIDDAASRFRDHLGFPPNMKLKVEVYDPKDGEKKERTLTIPMPKPKSAGG [r13_145_TrROS]
Not satisfied
SAGGVNPTDPAQATTTETTPSLVTLPNGEKVLVTTTTTTTPDGSTTTTTTTTNAATGATTSTTTTTASAGGS [r8_252_JUSTAS]
Satisfied
SAPGLRTYTIYDPSGVRRTFPPSWDVTILEYDPKTGTVTLKITKHNTDPGAPVSTETEKRKATFLRDVESAG [r14_927_JUSTAS]
Satisfied
SAGGSAGGSAGGTLEFTFPGEGNLLAKVRIDLGESGNVRIDVYIYDGDTLLAKATFTLNLSAGGSAGGSAGG [r7_79_TrMRF]
Satisfied
SAGGSAGGSAGGMTPEEIEALKARPLPDGSPILSIDREGNVYTITTARDPSVRTTVIPAESAGGSAGGSAGG [r7_995_JUSTAS]
Not satisfied

Please indicate if the recorded folding stability dG unfold for SAGWYYIIIIKHDNKPIVFVIPPEGMPPEGIRDQISEMLGMPPDNVEIDDIVPFDDNQDAEEAVKEALDSAG [r5_900_TrROS] meets or exceeds 0.4 kcal/mol.
Satisfied

Another sequence to look at: SAGGSAGGMVTITEVSYDPKIGKTFTLVTVKDPEGKETLVEVPLEEIEKLIEEVPEGRPVEIAPSAGGSAGG [r6_113_JUSTAS]
Not satisfied

Now try SAGGDIKFEIGLELLPDGILVIRGSVEVRMGGQSVTYEFIIIVKIKPIPPPPPPPKPKYNPEDGKWKSAGGS [r8_269_TrROS] .
Satisfied

----------
experiment: folding stability dG unfold (combined trypsin and chymotrypsin); higher = more stable
Quick rule for you: folding stability dG unfold at 4 kcal/mol or higher means y, lower means n.

Past entries and their recorded results:
MVLKVTIEITVTHPANPGKTEKLTIVVEAPTLEEALAAALEEIRRRLGLPPGAKVTVKVTVELVELPEEDLS [r1_149_TrROS_Hall]
y
SAGGSAGGMTLVLEGMSEEELEELARKLRELAEELGLKVKITVERREDGRVRLTVEIELPEELPSAGGSAGG [r6_906_TrROS_Hall]
y
FKFKITELSFNPEWGYIHFNVKVEGPDGQPQTFPIMIRIRIPPPPPPPPPPMRADPDGKVRNPDDGKEHDAS [r1_270_TrROS]
y

Assess whether reported folding stability dG unfold for SAMPIPNKNVVIRAKRSPDGTWDLTITVDNEKLGSKKAKTEEELKALVEEIAKEIAEKLGPGNVTVVEESAG [r14_791_JUSTAS] sits at 4 kcal/mol or higher.
n

Follow-up entry: SAKFRVSISYDPPDGYLTIMFRYPNPNQPITPEEIEEIAREILEERGHKVKIDEIHHEGNYFMIKIKLPSAG [r14_556_TrROS]
n

Would you mind doing SAGGSAGGSAGPEVRIELERDEDGRLRLRATFKLEDGKEVRVEVEFDLKTKKLTVKIEPVSAGGSAGGSAGG [r11_107_TrROS_Hall] as well?
y

Check SAGGMYLYKINIKNENEEFFLPILAPEEDEEKVEELAKEISIKLGVKPENIKIEKIEKILGPNGIPVSAGGS [r16_650_TrMRF] too.
n

----------
test: folding stability dG unfold (combined trypsin and chymotrypsin); higher = more stable
The sequences listed here are annotated with their folding stability dG unfold.
Write the value in kJ/mol as a bare number.

The examples below pair each entry with its known result.
SAGNDEEDQKKAEEQQKPPLEIEPIRVMVMVPFPGGDLLISITIPIIKYPDGGIIIPIPIEIIPLEDISAGG [r19_11_TrROS]
10.5
SAGGSAGGSAGPTVASVEVLEYDPETGYLTVRIYIPDNGEWVDVKAPVGTAEEIVKAAEKSAGGSAGGSAGG [r17_111_TrMRF]
4.85
SAGGSAKKDGTITIKIPVKAPKDKNGKVFKPSAEAIKAKFGELGFDFEIEEIKESETYLEIKIKVKSAGGSA [r15_225_TrMRF]
6.39

// below: folding stability dG unfold requested for another sequence
Report folding stability dG unfold for SAGGSAEVELVKVEVNPDGPYVKATFRIPGGGDVAVLVFDPDRPNTARLIVRPPNNEPIAEIELPLSAGGSA [r15_974_TrMRF] please.
6.89

----------
assay: folding stability dG unfold (combined trypsin and chymotrypsin); higher = more stable
Would you mind labelling by folding stability dG unfold? At or over 0.8 kcal/mol is 1 (yes), under is 0 (no).

Solved cases (5 shown):
SAGGKTIEVEIVVPPDMTPEEVAARLAAALPPGAKIRVEEVREVTGPDGRKYRIFKVTIYDEKTGEPLSAGG [r13_12_TrROS_Hall]
1 (yes)
SAGGSAGGSSPSTSSERRIELPGGEEAEVFFYPSSGKILVRFPDREVEYYVEDDGKIVKKDPLSAGGSAGGS [r12_47_JUSTAS]
0 (no)
SAGGSAGGMVIHEIEVESPDPEKAEEEAKARAEEIRKALEEEEGGIPGEVKFVPTPEEDPLLLLSAGGSAGG [r6_23_JUSTAS]
1 (yes)
SAGGSAPRVVRVETVTLTPPADSTVTARLLRLETPEGPRYVLAVRDPSTPVVVARPVPEGATLLEESAGGSA [r15_75_TrMRF]
0 (no)
SAGGIEVDPEHKHVHIHIPNGNIPELLDLIEDAPGDHVSIHFYNPGNGKPRRFTMPRKEARKFLEQFSAGGS [r16_797_TrROS]
1 (yes)

Now turn to the next sequence.
State whether the measured folding stability dG unfold reaches 0.8 kcal/mol, counting equality as reaching it, for SAGGSAGGSAGKKKVKLVEFDEETGYALLEVEDEETGETKLVLVPMTAEELEALPNIEVLSAGGSAGGSAGG [r17_46_TrROS_Hall]
1 (yes)

Just for reference, the supplement of paper PMC12764529 is where these values come from.
